# assay.system: hGcgR (Homo sapiens, UniProt P47871)
# Sequence (P47871 26-477): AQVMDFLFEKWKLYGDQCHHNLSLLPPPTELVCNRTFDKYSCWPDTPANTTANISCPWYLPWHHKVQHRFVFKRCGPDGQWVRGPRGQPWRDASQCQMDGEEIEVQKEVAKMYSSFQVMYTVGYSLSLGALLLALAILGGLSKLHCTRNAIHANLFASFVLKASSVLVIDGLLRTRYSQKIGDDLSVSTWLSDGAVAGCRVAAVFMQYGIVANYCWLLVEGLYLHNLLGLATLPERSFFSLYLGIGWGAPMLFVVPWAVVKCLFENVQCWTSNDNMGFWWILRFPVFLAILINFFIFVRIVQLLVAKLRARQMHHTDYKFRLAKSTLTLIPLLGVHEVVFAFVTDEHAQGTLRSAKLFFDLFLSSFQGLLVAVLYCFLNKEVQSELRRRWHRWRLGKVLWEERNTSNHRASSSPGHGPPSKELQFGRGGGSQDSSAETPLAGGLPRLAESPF
# measurement.description: Functional cAMP activation in the presence of 0.1% casein (no HSA);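 also: intracellular cAMP rise after 30 min at 37 °C, read by HTRF against a cAMP standard curve, scaled from buffer only (0%) to maximal control ligand response (100%)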
# Type: cell-based
# condition.summary: read-out: Relative cAMP EC50, hGcgR
Starred links: 1 amine or outer side, 2 acyl side, 3 side chain; linkers in the order of their positions; H or OH if unused. Non-standard residues stand in square brackets, D forms with d. Groups on a side chain read outwards from the residue. No end group written: not given here. *: point of attachment. C18 diacid = O=C(O)CCCCCCCCCCCCCCCCC(=O)*; αMePhe(2-F) = C[C@](N)(Cc1ccccc1F)C(=O)O; γGlu = O=C(O)[C@H](CCC(=O)[*:2])N[*:1]; αMe4Pal = C[C@](N)(Cc1ccncc1)C(=O)O; αMeY = C[C@](N)(Cc1ccc(O)cc1)C(=O)O; 4Pal = N[C@@H](Cc1ccncc1)C(=O)O; αMeL = CC(C)C[C@](C)(N)C(=O)O; αMeS = C[C@](N)(CO)C(=O)O; Orn = NCCC[C@H](N)C(=O)O; AEEA = NCCOCCOCC(=O)O; Aib = CC(C)(N)C(=O)O
measured.attribute: EC50
Answer shape: numeric part, then the unit.

EC50 for Y[Aib]QGT[αMePhe(2-F)]TSD[4Pal][αMeS]I[αMeL]LD[Orn]K([AEEA-γGlu-C18 diacid])AA[Aib]EFI[dE][αMeY]LIEGGPSSGAPPPSGGGE-NH2 [Example 745] is 1.86 nM

H-Y[Aib]QGT[αMePhe(2-F)]TSD[4Pal][αMeS]I[αMeL]LD[Orn]K([AEEA-γGlu-C18 diacid])AQ[Aib][Orn]FI[dE][αMeY]LIEGGPSSGEPEPSEG-NH2 [Example 481] has a reported EC50 of 1.22 nM

// H-Y[Aib]QGT[αMePhe(2-F)]TSD[4Pal]SI[αMeL]LD[Orn]K([AEEA-γGlu-C18 diacid])AQ[αMe4Pal][Orn]FI[dE][αMeY]LEEGGPSSGEPPPEGT-NH2 [Example 506] : EC50 value = 17.1 nM

GET /value?item= H-Y[Aib]QGT[αMePhe(2-F)]TSD[4Pal][αMeS]ILLD[Orn]K([γGlu-γGlu-C18 diacid])AQ[Aib][Orn]FI[dE]YLIEGGPSSGEPPPSGTGE-NH2 [Example 548] &field=EC50 returns 3.94 nM

The substance listed as H-Y[Aib]QGT[αMePhe(2-F)]TSD[4Pal][αMeS]I[αMeL]LD[Orn]K([γGlu-γGlu-C18 diacid])AQ[Aib][Orn]FI[dE][αMeY]LQEGGPSSGEPPPSGTEE-NH2 [Example 572] has a reported EC50 of 3.48 nM

// sample H-Y[Aib]QGT[αMePhe(2-F)]TSD[4Pal][αMeS]I[αMeL]LD[Orn]K([γGlu-γGlu-C18 diacid])AQ[Aib][Orn]FI[dE][αMeY]LTEGGPSSGEPPPSGTGE-NH2 [Example 543] , its EC50 was 4.56 nM

Field EC50 (entry H-Y[Aib]QGTFTSDFS[Orn][αMeL]LDKK([γGlu-γGlu-C18 diacid])AQ[Aib]AFIEYLLEGGPSS[Aib]APPPGGS-NH2 [Example 770] ) reads 5.37 nM

Briefly, EC50 measured for Y[Aib]QGT[αMePhe(2-F)]TSD[4Pal]SI[αMeL]LD[Orn]K([AEEA-γGlu-C18 diacid])AQ[αMe4Pal]EFI[dE][αMeY]LIEGGPSSGEPPPSGS-NH2 [Example 644] : 5.91 nM

Item: H-Y[Aib]QGT[αMePhe(2-F)]TSD[4Pal][αMeS]ILLD[Orn]K([γGlu-γGlu-C18 diacid])AQ[Aib][Orn]FI[dE]YLIEGGPSSGEPPPSGTEE-NH2 [Example 576] | EC50: 6.37 nM

Notebook: H-Y[Aib]QGT[αMePhe(2-F)]TSD[4Pal][αMeS]I[αMeL]LD[Orn]K([AEEA-γGlu-C18 diacid])AQ[αMe4Pal]EFI[dE][αMeY]LIEGGPSSGAPPPSGSEE-NH2 [Example 713] , EC50 read as 1.71 nM

Reported EC50 for Y[Aib]QGT[αMePhe(2-F)]TSD[4Pal][αMeS]I[αMeL]LD[Orn]K([AEEA-γGlu-C18 diacid])AQ[αMe4Pal]EFI[dE][αMeY]LVEGGPSSGEPPPSGGGE-NH2 [Example 735] was 1.97 nM

Reported EC50 ( H-Y[Aib]QGT[αMePhe(2-F)]TSD[4Pal]SI[αMeL]LD[Orn]K([AEEA-γGlu-C18 diacid])AQ[αMe4Pal][Orn]FI[dE][αMeY]LIEGGPSSGEPPPEGE-NH2 [Example 675] ) = 2.15 nM

So, Y[Aib]QGT[αMePhe(2-F)]TSD[4Pal][αMeS]I[αMeL]LD[Orn]K([AEEA-γGlu-C18 diacid])AQ[αMe4Pal]EFI[dE][αMeY]LVEGGPSSGAPPPSGGGE-NH2 [Example 769] ? Its EC50 was 1.33 nM

substance H-Y[Aib]QGT[αMePhe(2-F)]TSD[4Pal][αMeS]I[αMeL]LD[Orn]K([γGlu-γGlu-C18 diacid])AQ[Aib]NFI[dE][αMeY]LQEGGPSSGEPPPEGT-NH2 [Example 525] , EC50 observed: 10 nM

Field EC50 (entry H-Y[Aib]QGT[αMePhe(2-F)]TSD[4Pal]SI[αMeL]LD[Orn]K([AEEA-γGlu-C18 diacid])AQ[αMe4Pal][Orn]FI[dE][αMeY]LIEGGPSSGDPPPEGTGE-NH2 [Example 732] ) reads 2.18 nM

For reference, reported EC50 for Y[Aib]QGT[αMePhe(2-F)]TSD[4Pal][αMeS]I[αMeL]LD[Orn]K([γGlu-γGlu-C18 diacid])AQ[Aib]NFI[dE][αMeY]LQEGGPSSGEPPPEGTE-NH2 [Example 526] stands at 8.62 nM

Looking up H-Y[Aib]QGT[αMePhe(2-F)]TSD[4Pal][αMeS]ILLD[Orn]K([γGlu-γGlu-C18 diacid])AQ[Aib][Orn]FI[dE][αMeY]LQEGGPSSGEPPPEGAEE-NH2 [Example 574] , I see its EC50 listed as 5.04 nM

The substance listed as Y[Aib]QGT[αMePhe(2-F)]TSD[4Pal]SI[αMeL]LD[Orn]K([AEEA-γGlu-C18 diacid])AQ[αMe4Pal][Orn]FI[dE][αMeY]LIEGGPSSGDPPPEAE-NH2 [Example 728] has a reported EC50 of 2.45 nM

The measured EC50 associated with Y[Aib]QGT[αMePhe(2-F)]TSD[4Pal]SI[αMeL]LD[Orn]K([AEEA-AEEA-γGlu-C18 diacid])AQ[αMe4Pal]EFI[dE][αMeY]LLEGGPSSGAPPPSGE-NH2 [Example 613] reads 20.4 nM

Entry H-Y[Aib]QGT[αMePhe(2-F)]TSD[4Pal]SILLDKK([γGlu-γGlu-C18 diacid])AQ[Aib]AFIEYLEEGGPSSGAPPPSGGEE-NH2 [Example 612] , EC50 reported as 7.13 nM
